Examples of molecules with documented pIC50 follow.
- tested on: AhR (Homo sapiens)
- Sequence (P35869 11-848): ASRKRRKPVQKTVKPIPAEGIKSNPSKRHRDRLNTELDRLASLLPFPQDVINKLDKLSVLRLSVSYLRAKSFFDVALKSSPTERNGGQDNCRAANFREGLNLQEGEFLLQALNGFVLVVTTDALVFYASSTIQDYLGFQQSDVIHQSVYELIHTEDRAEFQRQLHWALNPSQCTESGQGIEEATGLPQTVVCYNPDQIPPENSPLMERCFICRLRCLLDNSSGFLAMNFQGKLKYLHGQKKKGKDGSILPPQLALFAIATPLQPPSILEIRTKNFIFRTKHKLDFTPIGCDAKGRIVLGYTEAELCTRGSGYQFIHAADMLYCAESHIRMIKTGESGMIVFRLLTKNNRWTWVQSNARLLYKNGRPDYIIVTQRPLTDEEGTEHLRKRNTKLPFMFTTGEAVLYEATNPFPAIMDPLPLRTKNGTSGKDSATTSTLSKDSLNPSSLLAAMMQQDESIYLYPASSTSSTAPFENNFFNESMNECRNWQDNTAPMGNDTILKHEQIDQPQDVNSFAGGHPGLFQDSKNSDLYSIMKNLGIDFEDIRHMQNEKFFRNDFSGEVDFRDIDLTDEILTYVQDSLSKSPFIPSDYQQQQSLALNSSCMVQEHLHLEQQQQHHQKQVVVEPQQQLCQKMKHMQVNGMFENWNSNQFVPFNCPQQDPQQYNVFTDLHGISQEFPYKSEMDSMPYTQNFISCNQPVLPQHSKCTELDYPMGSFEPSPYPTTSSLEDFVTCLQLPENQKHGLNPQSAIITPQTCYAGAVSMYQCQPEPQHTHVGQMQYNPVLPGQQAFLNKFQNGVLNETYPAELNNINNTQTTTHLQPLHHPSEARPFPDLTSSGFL
- assay notes: AhR inhibitory activity experiment, in vitro assay 1: HepG2-Lucia AhR cells, Lucia luciferase reporter (QUANTI-Luc)
- test conditions: 24 hours incubation at 37° C., Lucia luciferase in supernatant, read-out: AhR inhibitory activity C50
- Source text: Test Example: AhR Inhibitory Activity Experiment When QUANTI-Luc™ (InvivoGen Company) testing reagents are used, AhR gene signaling pathways can be studied by monitoring the activity of Lucia luciferase in the cell culture supernatant. In Vitro Assay 1: Assay on Inhibitory Activity in Human Cell Lines Adherent cell layers of HepG2-Lucia™ AhR cells in a logarithmic growth phase were washed with PBS, and then the cells were isolated with trypsin. […]
pIC50: −log10 of the molar value.

Use the examples below as a reference point.
(Q) For AhR (Homo sapiens), provide pIC50 of COc1ccc([C@H](C)NC(=O)c2cc(-c3ccc(Cl)cc3)nc(-c3cnn(C)c3)n2)cc1Cl please.
(A) > 7.30

(Q) How about C[C@H](NC(=O)c1cc(-c2ccc(Cl)cc2)nc(-c2ccnc(F)c2)n1)c1ccnc(F)c1 ?
(A) > 7.30

(Q) How about C[C@H](NC(=O)c1cc(-c2ccc(Cl)cc2)nc(-c2cnn(C)c2)n1)c1ccccc1C(F)(F)F ?
(A) 6.00 to 6.70

Further cases:
(Q) For AhR (Homo sapiens), provide pIC50 of C[C@H](NC(=O)c1cc(-c2ccc(Cl)cc2)nc(-c2ccnc(N)c2)n1)c1ccnc(F)c1 please.
(A) > 7.30
